test: Blood level screening after oral dose; assay type: in vivo, Sprague-Dawley rats; settings: male, Sprague-Dawley, plasma; rat, oral gavage 10 mg/kg, 6 hr; read-out: Plasma Levels (μM) 6 hr
Reported Endpoint: concentration at 6 h (µM)
The reply should be a number in µM, with the unit left off.

Illustrative cases are given below, each with its answer.
- Cc1cccc(Cc2nnc(C(=O)[C@@H](NC(=O)Cn3c(-c4ccccc4)ncc(N)c3=O)C(C)C)o2)c1: 1.89
- Cc1cccc(Cc2nnc(C(=O)[C@@H](NC(=O)Cn3c(-c4ccc(F)cc4)ncc(N)c3=O)C(C)C)o2)c1: 1.04
- Cc1cccc(Cc2nnc(C(=O)[C@@H](NC(=O)CN3C(=O)CN=C(C4CCNCC4)c4ccccc43)C(C)C)o2)c1: 0.036
- Cc1cccc(Cc2nnc(C(=O)[C@@H](NC(=O)CN3C(=O)CN=C(c4ccc(C(F)(F)F)cc4)c4ccccc43)C(C)C)o2)c1: 0.84

# concentration at 6 h lookup, item Cc1cccc(Cc2nnc(C(=O)[C@@H](NC(=O)CN(C(=O)[C@@H](NC(=O)OCc3ccccc3)C(C)C)c3ccccc3)C(C)C)o2)c1
0.26

Give the measured concentration at 6 h of CC(C)[C@H](NC(=O)[C@@H]1CCCN1C(=O)[C@@H](NC(=O)OCc1ccccc1)C(C)C)C(=O)c1nnc(Cc2ccc3c(c2)OCO3)o1 .
0

Data request, read-out concentration at 6 h, for Cc1cccc(Cc2nnc(C(=O)[C@@H](NC(=O)CN3C(=O)CNC3=O)C(C)C)o2)c1
1.03
